Biological target: picrotoxin binding site on GABAA receptors
Experiment: [35S]-TBPS displacement (inhibition of [35S]-TBPS binding)
Settings: duplicate experiments performed in triplicate; ± standard error of the mean
Procedure: The IC50 values for non-competitive displacers of [^35S]-TBPS from the picrotoxin binding site on GABAA receptors are reported in Table 1. ^aResults presented are from duplicate experiments performed in triplicate. Error limits are calculated as standard error of the mean. […]
measurement name: IC50 (nM)
Entry rule: numbers only, all in nM.

Examples from the recorded data:
compound	numeric readout
COC[C@]12CC[C@@H](O)C[C@@H]1CC[C@@H]1[C@@H]2CC[C@@]2(C)[C@H]1CC[C@@]21CO1 [12, MQ-90]	79
COC[C@]12CC[C@H](O)CC1=CC[C@@H]1[C@@H]2CC[C@]2(C)[C@@H](OC)CC[C@@H]12 [26, MQ-100]	17800

// sample COC[C@]12CC[C@@H](O)C[C@@H]1CC[C@H]1[C@@H]3CC[C@H](C(C)=O)[C@@]3(C)CC[C@@H]12 [17, MQ-93] , its IC50 was 47

COC[C@]12CCC(=O)C[C@@H]1CC[C@H]1[C@@H]3CC[C@H](OC)[C@@]3(C)CC[C@@H]12 [7, MQ-88, (5α,17β)-17,19-Dimethoxyandrostan-3-one] has a reported IC50 of 8700

Quick note, IC50 for COC[C@]12CC[C@@H](O)C[C@@H]1CC[C@H]1[C@@H]3CC[C@H](OC)[C@@]3(C)CC[C@@H]12 [8, MQ-89, (5α,17β)-17,19-Dimethoxyandrostan-3-ol] landed at 56

For record COC[C@]12CC[C@@H](O)C[C@@H]1CC[C@H]1[C@@H]3CC[C@H]([N+](=O)[O-])[C@@]3(C)CC[C@@H]12 [29, MQ-97] the listed IC50 is 37

----------
Biological target: rat α1β2γ2L type GABAA receptors expressed in Xenopus laevis oocytes (Rattus norvegicus (Rat), UniProt P62813+P63138, INS375LLRMFSFK)
Experiment: Oocyte electrophysiology: potentiation of chloride currents mediated by 2 μM GABA, and direct gating
Assay type: cell-based
Details: 1 μM compound; 2 μM GABA control; N≥4 oocytes; ± SEM
measurement name: oocyte electrophysiology, ratio of currents in presence/absence of compound, 1 μM
Please reply with the number alone, leaving off any unit.

These solved cases illustrate the format of a correct answer.
>>> print(df.to_string())
                                   molecule  numeric_readout
0  COC[C@]12CC[C@@H](O)C[C@@H]1CC[C@H]1[C@@H]3CC[C@H](C#N)[C@@]3(C)CC[C@@H]12 [16, MQ-92]             9.79
1  COC[C@]12CCC(O)CC1CC[C@@H]1[C@@H]2CC[C@]2(C)C(=O)CC[C@@H]12 (stereo in doubt) [30, MQ-94]             0.88

Shift focus to the following entry.
// oocyte electrophysiology, ratio of currents in presence/absence of compound, 1 μM lookup, molecule = COC[C@]12CC[C@@H](O)C[C@@H]1CC[C@H]1[C@@H]3CC[C@H](C(C)=O)[C@@]3(C)CC[C@@H]12 [17, MQ-93] , result: 12.8

----------
Molecular target: picrotoxin binding site on GABAA receptors
Test: [35S]-TBPS displacement (inhibition of [35S]-TBPS binding)
Details: duplicate experiments performed in triplicate; ± standard error of the mean
For each record, check the reported IC50: if it is below 600 nM write T, else write F.

                                   compound                       experimental_target  class
0  COC[C@]12CC[C@@H](O)C[C@@H]1CC[C@@H]1[C@@H]2CC[C@]2(C)C(C#N)=CC[C@@H]12 [15, MQ-91]  picrotoxin binding site on GABAA receptors      T
1  COC[C@]12CCC(=O)C=C1CC[C@@H]1[C@@H]2CC[C@]2(C)[C@@H](OC)CC[C@@H]12 [24, MQ-99, (17β)-17,19-Dimethoxyandrost-4-en-3-one]  picrotoxin binding site on GABAA receptors      F
2  COC[C@]12CC[C@@H](O)C[C@@H]1CC[C@H]1[C@@H]3CC[C@H](C#N)[C@@]3(C)CC[C@@H]12 [16, MQ-92]  picrotoxin binding site on GABAA receptors      T
3  COC[C@]12CC[C@H](O)C[C@@H]1CC[C@H]1[C@@H]3CC[C@H](OC)[C@@]3(C)CC[C@@H]12 [31, MQ-96]  picrotoxin binding site on GABAA receptors      F
4  COC[C@]12CCC(O)CC1CC[C@@H]1[C@@H]2CC[C@]2(C)C(=O)CC[C@@H]12 (stereo in doubt) [30, MQ-94]  picrotoxin binding site on GABAA receptors      F

// query Consider COC[C@]12CC[C@@H](O)C[C@@H]1CC[C@H]1[C@@H]3CC[C@H](C(=O)CO)[C@@]3(C)CC[C@@H]12 [20, MQ-98] . Does its IC50 lie strictly below 600 nM?
// result T
